Every entry's value here was drawn from patent US9156906B2.

System: A2 class I MHC molecules
procedure.details: A2 binding affinity of glycopeptides
Set-up: species or system human
Where a SMILES comes first, the peptide text is derived from it. The star is where a group is joined. αGalNAc = CC(=O)N[C@@H]1[C@@H](O)[C@@H](O)[C@@H](CO)O[C@@H]1*
measured.attribute: A2 affinity (in words)

compound=CC(=O)N[C@H]1[C@@H](OC[C@H](NC(=O)CNC(=O)[C@H](CC(C)C)NC(=O)[C@H](C)N)C(=O)N[C@H](C(=O)N[C@@H](C)C(=O)N2CCC[C@H]2C(=O)N2CCC[C@H]2C(=O)N[C@H](C(=O)O)C(C)C)[C@@H](C)O)O[C@H](CO)[C@H](O)[C@@H]1O measured_attribute="A2 affinity (in words)" reported="very high affinity"
compound="CC(=O)N[C@H]1[C@@H](O[C@H](C)[C@H](NC(=O)[C@H](CC(=O)O)NC(=O)[C@@H]2CCCN2C(=O)[C@H](Cc2ccccc2)NC(=O)[C@H](CC(C)C)NC(=O)[C@@H](N)Cc2ccccc2)C(=O)N[C@@H](CCCNC(=N)N)C(=O)N[C@@H](C)C(=O)N[C@H](C(=O)O)C(C)C)O[C@H](CO)[C@H](O)[C@@H]1O [FLFPD(GalNAc-T)RAV] (H-FLFPDT(αGalNAc)RAV-OH; N-terminus and C-terminus assumed)" measured_attribute="A2 affinity (in words)" reported="very high affinity"
compound="CC(=O)N[C@H]1[C@@H](O[C@H](C)[C@H](NC(=O)[C@H](CC(=O)O)NC(=O)[C@@H]2CCCN2C(=O)[C@H](Cc2ccccc2)NC(=O)[C@H](CC(C)C)NC(=O)[C@@H](N)Cc2ccccc2)C(=O)N[C@@H](CCCNC(=N)N)C(=O)N[C@@H](Cc2ccc(O)cc2)C(=O)N[C@H](C(=O)O)C(C)C)O[C@H](CO)[C@H](O)[C@@H]1O [FLFPD(Tn-T)RYV] (H-FLFPDT(αGalNAc)RYV-OH; N-terminus and C-terminus assumed)" measured_attribute="A2 affinity (in words)" reported="very high affinity"
